conditions: [M+Na]+; instrument: DT; stepped-field
READOUT LABEL: collision cross section (N2)

1. CCCCCCCCCCCCCCCC(=O)N[C@@H](CO[C@@H]1O[C@H](CO)[C@@H](O)C(O)C1O)[C@H](O)CCCCCCCCCCCCCCC (stereo partly specified) [GlcCer(34:0)]; 281.7 Å²
2. CCCCCCCCCCCCC=CC[C@@H](O)[C@H](CO[C@@H]1O[C@H](CO)[C@@H](O)C(O)C1O)NC(=O)CCCCCCCCCCCCCCCCCCCCCCC (stereo partly specified) [GlcCer(42:1)]; 307.5 Å²
3. OC[C@H]1OC(OC[C@H]2OC(O[C@]3(CO)O[C@H](CO)[C@@H](O)[C@@H]3O)[C@H](O)[C@@H](O)[C@@H]2O)[C@H](O)[C@@H](O)[C@H]1O (stereo partly specified) [Raffinose]; 210.7 Å²
4. NCC(=O)N[C@@H](CCCN=C(N)N)C(=O)NCC(=O)N[C@@H](CC(=O)O)C(=O)N[C@@H](CO)C(=O)O [GRGDS]; 208.2 Å²
5. CCCCCCCCCCCCC=CC[C@@H](O)[C@H](COP(=O)([O-])OCC[N+](C)(C)C)NC(=O)CC=CCCCCCCCCCCCCCCCCCCCC [SM(42:2)]; 308.2 Å²
6. CCCCC/C=C\C/C=C\C/C=C\CCCCC(=O)O[C@H](COCCCCCCCCCCCCCCCC)COP(=O)(O)OCCN [PE(o34:3)]; 278 Å²

* * *

settings: [M+H]+; instrument: DT; stepped-field
# key: entry, value: collision cross section (N2)
READOUT LABEL: collision cross section (N2) (Å²)

1) Cn1c(=O)c2[nH]cnc2n(C)c1=O; 143.06
2) C=C1C2CCC(C2)C1(C)C (stereo not drawn); 130.63
3) Cc1ncc(COP(=O)(O)O)c(C=O)c1O [Pyridoxal 5'-Phosphate]; 154.76
4) CCCCC/C=C\C/C=C\CCCCCCCCCC(=O)O[C@H](COC(=O)CCCCCCCCCCC)COP(=O)([O-])OCC[N+](C)(C)C; 280.16
5) CCCCCCCCCCCCCCCCCCCC(=O)OC[C@@H](O)COP(=O)([O-])OCC[N+](C)(C)C; 248.6
6) O=C(O)[C@@H]1C[C@@H](O)CN1 [Trans-4-Hydroxy-L-proline]; 130.23
7) O=C/C=C/c1ccccc1; 134.25
8) C=CCc1cc(OC)c2c(c1)OCO2; 141.69
9) CC(=O)N[C@@H](CCC(=O)O)C(=O)O [N-Acetyl-L-glutamate]; 139.03
10) CC(C)=CC(=O)SCCNC(=O)CCNC(=O)C(O)C(C)(C)COP(=O)(O)OP(=O)(O)OC[C@H]1O[C@@H](n2cnc3c(N)ncnc32)[C@H](O)[C@@H]1OP(=O)(O)O (stereo partly drawn); 180.03
11) CC(C)C[C@H](N)C(=O)O; 135.16
12) CN1c2c([nH]c(N)nc2=O)NCC1CNc1ccc(C(=O)N[C@H](CCC(=O)O)C(=O)O)cc1 (stereo partly drawn) [5-Methyltetrahydrofolate]; 196.99
13) CCCCC[C@H](O)/C=C/[C@@H]1[C@H]2C/C(=C/CCCC(=O)O)O[C@H]2C[C@H]1O; 201.3
14) O=C(O)/C=C(\CC(=O)O)C(=O)O [Trans-Aconitic Acid]; 153.02
15) Nc1nc(=O)c2ncn([C@@H]3O[C@H](CO)[C@@H](O)[C@H]3O)c2[nH]1; 165.02
16) N[C@@H](CS)C(=O)O; 149.57
17) O=C(O)[C@@H]1CCCN1; 126.48
18) Cn1c(=O)[nH]c2ncn(C)c2c1=O; 135.63

Ref: the C3SDB collision cross section collection
